Please go through the items and note down their GI50.
tested on: 786-0; assay: NCI tumour cell line growth inhibition, 48 h
The source made the active and inactive calls. Rule as the data show it: active = GI50 up to about 1.1 µM and inactive = higher.

compound: CCCCNS(=O)(=O)c1ccc(-c2ccc3c(c2)-c2ccc(S(=O)(=O)NCCCC)cc2S3(=O)=O)cc1
GI50: 11.6 µM (inactive)
--
compound: O=C(CC(=O)C1CCOC1=O)C(=O)Nc1ccc(Cl)cc1 (stereo not given)
GI50: > 100 µM (inactive)
--
compound: COc1ccc2c(c1)CC[C@@H]1C2CC[C@]2(C)C(=N\O)/C(=N/O)CC12 (stereo not given in full)
GI50: 17.5 µM (inactive)
--
compound: COC1(OC)CC(CO)(CNc2nc(N)nc(Cl)c2/C=N\O)C1
GI50: 44.2 µM (inactive)

Qu. Return reported GI50 for target or system 786-0, item COc1ccc(C2=NNC(=O)OC2c2ccccc2)cc1 (stereo not given) .
Ans. > 100 µM (inactive)
